- Measured Target: T1, TBD-17 (HC S104A)
- T1 construct: anti-TROP2 Fab, CDR3 HC alanine mutant
- T1 sequence (VH, as listed by the source, chain 1 of 2): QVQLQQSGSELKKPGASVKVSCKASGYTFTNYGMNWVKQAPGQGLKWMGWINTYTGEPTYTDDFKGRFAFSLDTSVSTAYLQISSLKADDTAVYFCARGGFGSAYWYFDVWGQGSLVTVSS
- T1 sequence (VL, as listed by the source, chain 2 of 2): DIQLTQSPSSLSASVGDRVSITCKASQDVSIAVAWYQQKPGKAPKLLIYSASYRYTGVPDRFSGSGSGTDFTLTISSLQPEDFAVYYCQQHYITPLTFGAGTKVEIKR
- Experiment Description: competition ELISA, Fab on captured TROP2
// NB: equality with 9 µM counts as Condition not met; only IC50 strictly below is Condition met

QUERY: Is 9 µM strictly greater than the binder's reported IC50? binder: VDFCYQYGWPICSRV (mask peptide for the TROP2 Fab) [Peptide-56]
RESULT: Condition not met

QUERY: hey, is IC50 for VDFCYQYGWPICSRLY (mask peptide for the TROP2 Fab) [Peptide-47] lower than 9 µM or not?
RESULT: Condition not met

QUERY: Lab note: confirm whether the reported IC50 for this binder is below 9 µM, equality not counting. binder: IDFCYRYGWPVCQT (mask peptide for the TROP2 Fab) [Peptide-57]
RESULT: Condition not met

QUERY: Does the reported IC50 of the following binder sit strictly below 9 µM? IDFCLLYKWPVCEL (mask peptide for the TROP2 Fab) [Peptide-49]
RESULT: Condition met

QUERY: Record VDFCALYHWPICYQ (mask peptide for the TROP2 Fab) [Peptide-43] : is its IC50 strictly below 9 µM?
RESULT: Condition met

QUERY: Quick check: IC50 of VDFCALYHWPVCGL (mask peptide for the TROP2 Fab) [Peptide-61] under 9 µM?
RESULT: Condition met

QUERY: Please let me know if VDFCGLYHWPICYQV (mask peptide for the TROP2 Fab) [Peptide-51] shows IC50 below 9 µM.
RESULT: Condition met

QUERY: Please indicate whether the reported IC50 of VEFCAIYSWPICKI (mask peptide for the TROP2 Fab) [Peptide-46] is strictly below 9 µM.
RESULT: Condition not met

QUERY: Does this binder meet the criterion IC50 < 9 µM? VDFCYQYAWPVCSTGD (mask peptide for the TROP2 Fab) [Peptide-52]
RESULT: Condition not met

QUERY: Determine if VDFCNLYHWPICAI (mask peptide for the TROP2 Fab) [Peptide-60] shows IC50 strictly lower than 9 µM.
RESULT: Condition met

QUERY: is_below(IC50, 9 µM) for VDFCYQYGWPICSRVD (mask peptide for the TROP2 Fab) [Peptide-45] ?
RESULT: Condition not met

QUERY: In plain terms, does VDFCYRYSWPVCWA (mask peptide for the TROP2 Fab) [Peptide-54] come in under 9 µM for IC50?
RESULT: Condition not met

QUERY: # check: IC50 < 9 µM for IDFCRVYDWPVCSL (mask peptide for the TROP2 Fab) [Peptide-53]
RESULT: Condition met

QUERY: For this binder, is IC50 lower than 9 µM? VDFCAIYSWPICKI (mask peptide for the TROP2 Fab) [Peptide-50]
RESULT: Condition met

QUERY: # strict comparison: is reported IC50 < 9 µM? input = VDFCALYNWPVCAI (mask peptide for the TROP2 Fab) [Peptide-59]
RESULT: Condition met
